- method-notes: Antioxidant activity assessed as DPPH radical scavenging activity at 16.7 uM measured as absorbance (t -> infinity) after 10 secs by UV-visible spectrophotometry
- Type: physicochemical
- assay-context: 10 s
Recorded Activity for the following molecules
property-label: Activity

# molecule, result
measured = [
    ("CC[C@H](CC[C@@H](C)[C@H]1CC[C@H]2[C@@H]3CC[C@H]4C[C@@H](OC(=O)/C=C/c5ccc(O)c(OC)c5)CC[C@]4(C)[C@H]3CC[C@]12C)C(C)C", 0.991),
    ("CC[C@H](CC[C@@H](C)[C@H]1CC[C@H]2[C@@H]3CC=C4C[C@@H](OC(=O)/C=C/c5ccc(O)c(OC)c5)CC[C@]4(C)[C@H]3CC[C@]12C)C(C)C", 0.944),
    ("COc1cc(/C=C/C(=O)O)ccc1O [FERULATE]", 0.913),
    ("COC(=O)/C=C/c1ccc(O)c(OC)c1", 0.896),
    ("COc1cc(/C=C/C(=O)O[C@H]2CC[C@@]3(C)C(=CC[C@H]4[C@@H]5CC[C@H]([C@H](C)CCCC(C)C)[C@@]5(C)CC[C@@H]43)C2)ccc1O", 0.979),
    ("COc1cc(/C=C/C(=O)O[C@H]2CC[C@@]3(C)[C@@H](CC[C@@H]4[C@@H]3CC[C@]3(C)[C@@H]([C@H](C)CC[C@@H](C)C(C)C)CC[C@@H]43)C2)ccc1O", 1.091),
    ("CC[C@H](/C=C/[C@@H](C)[C@H]1CC[C@H]2[C@@H]3CC=C4C[C@@H](OC(=O)/C=C/c5ccc(O)c(OC)c5)CC[C@]4(C)[C@H]3CC[C@]12C)C(C)C", 1.01),
    ("CCOC(=O)/C=C/c1ccc(O)c(OC)c1 [ETHYL FERULATE]", 0.851),
    ("COc1cc(/C=C/C(=O)O[C@H]2CC[C@@]3(C)C(=CC[C@H]4[C@@H]5CC[C@H]([C@H](C)CC[C@@H](C)C(C)C)[C@@]5(C)CC[C@@H]43)C2)ccc1O", 1.045),
]

From: ChEMBL document CHEMBL3797046
